System: Plasmodium berghei (Pb-Luc) exoerythrocytic-stage parasites
Assay: microbe, parasite or virus in culture
Conditions: read-out: Inhibition% @ 50 uM rep2
observation type: inhibition at 50 µM (%)
Answer format: numeric, % implied, no suffix.

Solved cases below.
Clc1ccc2[nH]c3c(NCCCN4CCOCC4)ncnc3c2c1    100
O=C(NCC(c1ccsc1)N1CCCCCC1)c1ccc(C(F)(F)F)cc1 (centres unmarked)    104
c1ccc2c(NCCc3c[nH]c4ccccc34)c3ccccc3nc2c1    101
Cc1sc2ncnc(Sc3nc4ccccc4[nH]3)c2c1C    102

Q: Which measured inhibition at 50 µM belongs to "Cc1ccc(Nc2nc(NCCO)c3ccccc3n2)cc1C" , tested on Plasmodium berghei (Pb-Luc) exoerythrocytic-stage parasites?
A: 102

----------
Test system: Plasmodium berghei (Pb-Luc) exoerythrocytic-stage parasites
Test: microbe, parasite or virus in culture
Conditions: read-out: Inhibition% @ 50 uM rep2
Consider the following compounds and their measured inhibition at 50 µM readings.
Answer format: numeric, % implied, no suffix.

Solved cases below.
CCOc1ccc(N2C(N)=NC(N)=NC2(C)C)cc1    22
COc1ccc2c(c1OC)C(=O)N1c3ccccc3N=C(c3ccc(C)cc3)CC21 (centres unmarked)    95
COc1cc(OC)c(N(C)C(=O)c2cc3c(s2)-c2ccccc2S(=O)(=O)C3)cc1Cl    102
CCN(CC)CCn1c(=N)n(CC(O)c2ccc(Cl)c(Cl)c2)c2ccccc21 (centres unmarked)    105
Cc1cc(Nc2ccc(OCc3ccccc3)cc2)nc2cc(O)ccc12    103
CCCc1c(C)nc2ccccc2c1O    103

Q: Which measured inhibition at 50 µM belongs to CC(C)(C)CC(C)(C)NCC(O)COc1ccc2c(c1)CCC2 (centres unmarked) , tested on Plasmodium berghei (Pb-Luc) exoerythrocytic-stage parasites?
A: 104

Q: Can you handle "CCn1nc(-c2ccc(C(=O)OC)cc2)nc2c(=O)n(C)c(=O)nc1-2" next?
A: 105

Q: Can you handle "C=CCc1c(C)nc2ccccc2c1O" next?
A: 97

Q: Can you handle "Oc1ccc(C(=C(Cl)Cl)c2ccc(O)cc2)cc1" next?
A: 99

Q: Can you handle CC(O)(c1ccc(Cl)cc1)C(CN1CCCCC1)c1ccccc1 (centres unmarked) next?
A: 102

Q: Can you handle "CCOC(=O)c1c(NC(=O)c2ccccc2)sc2c(O)c(CN(CC)CC)ccc12" next?
A: 70

Q: Can you handle "O=C(Nc1ccc(N2CCN(Cc3ccccc3)CC2)cc1)c1cccs1" next?
A: 102

Q: Can you handle COc1ccc(NC(=O)C2c3ccccc3C(=O)N(CC(C)C)C2c2cccs2)cc1 (centres unmarked) next?
A: 106

----------
Consider the following compounds and their measured cytotoxicity at 50 µM readings.
Test system: HepG2-A16-CD81EGFP cells
Experiment: cells
Settings: Homo sapiens, HepG2, read-out: HepG2 Tox% @ 50 uM rep1
Answer format: numeric, % implied, no suffix.

Solved cases below.
CCOc1ccc(CCNC(=O)c2cccs2)cc1OCC    43
CC(=O)Nc1nnc(SCc2c(C)cc(C(C)(C)C)cc2C)s1    0.191
COc1ccc(CCN2C(=O)c3[nH]nc(-c4cc(Cl)c(C)cc4O)c3C2c2ccccc2F)cc1 (stereo not drawn)    97
COc1ccc(C2c3ccc4ccccc4c3Oc3ncn(CCCn4ccnc4)c(=N)c32)cc1OC (stereo not drawn)    102
O=C(Nc1cccc(C(F)(F)F)c1)c1cc(Cl)ccc1O    98

Q: Item "COc1ccc(-c2c(C)nn3c(N)c(C#N)cnc23)cc1OC" has what recorded cytotoxicity at 50 µM?
A: 72

Q: Can you handle CC(C)(C)CC(C)(C)NCC(O)COc1ccc(Cl)cc1Cl (stereo not drawn) next?
A: 99

----------
Consider the following molecules and their measured inhibition at 50 µM readings.
Test system: HepG2-A16-CD81EGFP cells
Test: cells
Settings: Homo sapiens, HepG2, read-out: % inhibition
Answer format: numeric, % implied, no suffix.

Solved cases below.
Fc1ccc2[nH]c3c(NCCCN4CCOCC4)ncnc3c2c1    58.8
Cc1c(C)n(CC(O)CNC2CCCCC2C)c2ccccc12 (stereo not shown)    31.3

Q: Item CCOC(=O)C1CCN(C(=O)CN2C(=O)c3ccccc3C2c2c[nH]c3ccccc23)CC1 (stereo not shown) has what recorded inhibition at 50 µM?
A: -18.5

Q: Can you handle "Cc1ccccc1OCCSc1nc2ccc(NC(=O)c3ccccc3)cc2s1" next?
A: 67.4

----------
System: HepG2-A16-CD81EGFP cells
Assay: cells
Conditions: Homo sapiens, HepG2, read-out: Tox max inhibition (%) @ 50 uM
Label No if inhibition at 50 µM falls below 60%; label Yes in every other case.

CCOC(=O)c1cn(CC)c2cc(N(C)CCc3ccc(OC)c(OC)c3)c(F)cc2c1=O [MMV665977]    No
Cc1sc2ncnc(Sc3nc4ccccc4[nH]3)c2c1C [MMV019266]    No
CN1CCN(c2nc(Nc3ccc(O)cc3)nc3ccccc23)CC1 [MMV000986]    No
COc1cccc(NC(=O)[C@H](C(C)C)n2c(=O)[nH]c3ccccc3c2=O)c1 [MMV665878]    No

Q: Textbook exercise: given the entry FC(F)(F)c1ccc(Nc2nnnc3ccccc23)cc1 [MMV665935] , state whether its inhibition at 50 µM is greater than or equal to 60%.
A: No

----------
Tested on: Plasmodium berghei (Pb-Luc) exoerythrocytic-stage parasites
Experiment: microbe, parasite or virus in culture
Settings: read-out: Inhibition% @ 50 uM rep2
observation type: inhibition at 50 µM (%)
Answer format: numeric, % implied, no suffix.

Solved cases below.
CN1CCN(c2c3c(c(C#N)c4nc5ccccc5n24)CCC3)CC1 [MMV008127]    -16
Cc1cc(C)cc(Nc2cc(C)nc3nc(C(F)(F)F)nn23)c1 [MMV011259]    99
FC(F)(F)c1cccc(Nc2nc3ccccc3nc2Nc2cccc(C(F)(F)F)c2)c1 [MMV665794]    102
CCCn1c(=N)c(C(=O)NC2CCCCC2)cc2c(=O)n3cccc(C)c3nc21 [MMV008829]    45
CCOC(=O)c1cnc2ccc(Cl)cc2c1NCCCN(C)C [MMV006882]    102
Cc1cc(Nc2ccc3ccccc3c2)n2ncnc2n1 [MMV011099]    102
CCOc1cc(Cl)c(C(C)NC(=O)c2cccc(OC)c2)cc1OCC (stereo not shown) [MMV665803]    106
O=C1c2ccc3c4c(ccc(c24)C(=O)N1CCCCO)C(=O)N(CCCCO)C3=O [MMV009085]    104

Q: Item Cc1ccc(-c2cc3c(SCC(=O)Nc4cc(C(F)(F)F)ccc4Cl)nccn3n2)cc1 [MMV396680] has what recorded inhibition at 50 µM?
A: 85

Q: Can you handle COc1cc2c3cc1Oc1c(OC)c(OC)cc4c1C(Cc1ccc(O)c(c1)Oc1ccc(cc1)CC3N(C)CC2)N(C)CC4 (stereo not shown) [MMV007474] next?
A: 104

Q: Can you handle COc1cc2c(cc1OC)C1=NNC(=O)C1=NC(C)(C)C2 [MMV084940] next?
A: 102

Q: Can you handle O=C(Nc1ccc(-c2nc3cc4ccccc4cc3[nH]2)cc1)c1cccc(Br)c1 [MMV019241] next?
A: 91

Q: Can you handle COc1ccc(-c2nonc2NC(=O)c2cccc(Cl)c2)cc1OC [MMV020660] next?
A: 106

Q: Can you handle COc1ccc(C2c3ccc4ccccc4c3Oc3ncn(CCCN(C)C)c(=N)c32)cc1 (stereo not shown) [MMV667491] next?
A: 103

Q: Can you handle COc1ccc(C=C2SC(Nc3ccc(F)cc3)=NC2=O)c(OC)c1 [MMV084434] next?
A: 104

Q: Can you handle Cc1sc(NC(=O)c2ccco2)c(C(c2cccnc2)N2CCC(Cc3ccccc3)CC2)c1C (stereo not shown) [MMV396663] next?
A: 103

----------
Consider the following compounds and their measured cytotoxicity at 50 µM readings.
Tested on: HepG2-A16-CD81EGFP cells
Assay: cells
Settings: Homo sapiens, HepG2, read-out: HepG2 Tox% @ 50 uM rep2
Answer format: numeric, % implied, no suffix.

Cc1ccc(Cl)cc1N1CCN(CCCNC(=O)C2CCN(c3nc4ccccc4[nH]3)CC2)CC1 [MMV019746]    101
O=C(Nc1ccc(CN2CCOCC2)cc1)c1ccc(-c2ccc(Br)cc2)o1 [MMV665901]    102
Cc1sc2ncnc(Sc3nc4ccccc4[nH]3)c2c1C [MMV019266]    47
COc1cc2c(cc1OC)C1=NNC(=O)C1=NC(C)(C)C2 [MMV084940]    100

Q: Which measured cytotoxicity at 50 µM belongs to COc1ccccc1CNC(=O)CCn1c(=O)[nH]c2ccccc2c1=O [MMV665916] , tested on HepG2-A16-CD81EGFP cells?
A: -23

Q: Can you handle O=C(NC1CCCC1)c1ccc(N2CCC(NCc3cccc(C(F)(F)F)c3)CC2)cc1 [MMV666070] next?
A: 8.43

Q: Can you handle Cc1ccc(N2C3c4ccccc4N(S(=O)(=O)c4ccc(C)cc4)C2c2ccccc2N3S(=O)(=O)c2ccc(C)cc2)cc1 [MMV007160] next?
A: -10

Q: Can you handle CCn1nc(-c2ccc(C(=O)OC)cc2)nc2c(=O)n(C)c(=O)nc1-2 [MMV306025] next?
A: 101

Q: Can you handle CC(C)(C)CC(C)(C)NCC(O)COc1ccc(Cl)cc1Cl (stereo not shown) [MMV396794] next?
A: 100

Q: Can you handle Oc1c2c(nc3cc(-c4ccccc4)nn13)CCCC2 [MMV008270] next?
A: -22

Q: Can you handle COc1ccc2c(c1)OC(O)(C(F)(F)C(F)(F)F)CC2=O (stereo not shown) [MMV007839] next?
A: 96

Q: Can you handle COc1ccccc1CNC(=O)CCn1c(=O)[nH]c2ccsc2c1=O [MMV019066] next?
A: -5.32

Ref: paper PMC4890880
